As shown below, each of these compounds has a reported IC50 value.
test system: 454973-116-R2-J3-PDC spheroids, viability, % test/control; assay: Anticancer human tumor 454973-116-R2-J3-PDC patient-derived pancreatic carcinoma cell line growth inhibition [GQUAD]; conditions: curve of first compound; second compound 0.0316 µM; spheroids with HUVEC and MSC

Query: Give the reported value of IC50 for this record: C=CC(=O)N1CCN(c2nc(=O)n(-c3c(C)ccnc3C(C)C)c3nc(-c4c(O)cccc4F)c(F)cc23)C(C)C1 (centres undefined) + Cc1cnc(CNC(=O)c2c(=O)c3ccc(N4CCCN(C)CC4)nc3n3c2sc2ccccc23)cn1
Reply: > 10 µM

Query: Give the reported value of IC50 for this record: C#Cc1c(F)ccc2cc(O)cc(-c3ncc4c(N5CC6CCC(C5)N6)nc(OCC56CCCN5CC(F)C6)nc4c3F)c12 (centres undefined) + Cc1cnc(CNC(=O)c2c(=O)c3ccc(N4CCCN(C)CC4)nc3n3c2sc2ccccc23)cn1
Reply: < 0.0316 µM

Query: Give the reported value of IC50 for this record: C=CC(=O)N1CCN(c2nc(=O)n(-c3c(C)ccnc3C(C)C)c3nc(-c4c(O)cccc4F)c(F)cc23)C(C)C1 (centres undefined) + CN(C)c1ccc(Nc2c3ccc(NC(=O)CCN4CCCC4)cc3nc3cc(NC(=O)CCN4CCCC4)ccc23)cc1
Reply: > 10 µM

Query: Give the reported value of IC50 for this record: CCc1c2c(nc3ccc(O)cc13)-c1cc3c(c(=O)n1C2)COC(=O)[C@]3(O)CC + Cc1cnc(CNC(=O)c2c(=O)c3ccc(N4CCCN(C)CC4)nc3n3c2sc2ccccc23)cn1
Reply: < 0.000999 µM

---

As shown below, each of these compounds has a reported viability, T/C value.
System: 454973-116-R2-J3-PDC spheroids, viability, % test/control
Assay: Anticancer human tumor 454973-116-R2-J3-PDC cell line growth inhibition [GQUAD];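 further: spheroids exposed to compounds for seven days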;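 on viability, T/C: 100% = DMSO vehicle control viability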
Conditions: second compound 10 µM; first compound 0.0316 µM; stronger effect = lower value; spheroids with HUVEC and MSC
Text: DNA G-quadruplex Stabilizer Agents in Combinations in Complex Spheroids A high-throughput screen of multi-cell type tumor spheroids was designed to identify active combinations of DNA G-quadruplex stabilizer agents and targeted small molecules. […] Compounds. […] If the clinical Cmax for an agent had not been determined, the highest concentration tested was 10 microM. […]

The cases that follow already have their viability, T/C on record.
CCCS(=O)(=O)Nc1ccc(F)c(C(=O)c2c[nH]c3ncc(-c4ccc(Cl)cc4)cc23)c1F + CN(C)c1ccc(Nc2c3ccc(NC(=O)CCN4CCCC4)cc3nc3cc(NC(=O)CCN4CCCC4)ccc23)cc1    68.3%
CC1COCCN1c1cc(C2(S(C)(=N)=O)CC2)nc(-c2ccnc3[nH]ccc23)n1 (configuration not stated) + Cc1[nH]c2ccc(F)cc2c1-c1nc2c3cccnc3c3ncccc3c2[nH]1    86.7%
C=CCn1c(=O)c2cnc(Nc3ccc(N4CCN(C)CC4)cc3)nc2n1-c1cccc(C(C)(C)O)n1 + Cc1[nH]c2ccc(F)cc2c1-c1nc2c3cccnc3c3ncccc3c2[nH]1    100%
C#Cc1c(F)ccc2cc(O)cc(-c3ncc4c(N5CC6CCC(C5)N6)nc(OCC56CCCN5CC(F)C6)nc4c3F)c12 (configuration not stated) + CN(C)c1ccc(Nc2c3ccc(NC(=O)CCN4CCCC4)cc3nc3cc(NC(=O)CCN4CCCC4)ccc23)cc1    44.9%

Query: Give the reported value of viability, T/C for this record: COc1ccc([C@@H](O)c2cc(-c3ncnc4cc(N5CCOCC5)ccc34)c(F)cc2Cl)nn1 + CN(C)c1ccc(Nc2c3ccc(NC(=O)CCN4CCCC4)cc3nc3cc(NC(=O)CCN4CCCC4)ccc23)cc1
Reply: 76.6%

Query: Give the reported value of viability, T/C for this record: CCCS(=O)(=O)Nc1ccc(F)c(C(=O)c2c[nH]c3ncc(-c4ccc(Cl)cc4)cc23)c1F + Cc1[nH]c2ccc(F)cc2c1-c1nc2c3cccnc3c3ncccc3c2[nH]1
Reply: 107%

---

test system: 454973-116-R2-J3-PDC spheroids, viability, % test/control; assay: Anticancer human tumor 454973-116-R2-J3-PDC cell line growth inhibition [GQUAD]; details: second compound 10 µM; first compound 0.0316 µM; stronger effect = lower value; spheroids with HUVEC and MSC;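 further: spheroids exposed to compounds for seven days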;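 on viability, T/C: 100% = DMSO vehicle control viability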
observation-type: viability, T/C

The cases that follow already have their viability, T/C on record.
CCc1c2c(nc3ccc(O)cc13)-c1cc3c(c(=O)n1C2)COC(=O)[C@]3(O)CC + CN(C)c1ccc(Nc2c3ccc(NC(=O)CCN4CCCC4)cc3nc3cc(NC(=O)CCN4CCCC4)ccc23)cc1    19.7%
Cc1[nH]c2ccccc2c1CCNCc1ccc(/C=C/C(=O)NO)cc1 + CN(C)c1ccc(Nc2c3ccc(NC(=O)CCN4CCCC4)cc3nc3cc(NC(=O)CCN4CCCC4)ccc23)cc1    51.8%
C#Cc1c(F)ccc2cc(O)cc(-c3ncc4c(N5CC6CCC(C5)N6)nc(OCC56CCCN5CC(F)C6)nc4c3F)c12 (centres undefined) + Cc1cnc(CNC(=O)c2c(=O)c3ccc(N4CCCN(C)CC4)nc3n3c2sc2ccccc23)cn1    0.16%
Nc1ccn(C2OC(CO)C(O)C2(F)F)c(=O)n1 (centres undefined) + Cc1[nH]c2ccc(F)cc2c1-c1nc2c3cccnc3c3ncccc3c2[nH]1    17.5%
CCCS(=O)(=O)Nc1ccc(F)c(C(=O)c2c[nH]c3ncc(-c4ccc(Cl)cc4)cc23)c1F + Cc1cnc(CNC(=O)c2c(=O)c3ccc(N4CCCN(C)CC4)nc3n3c2sc2ccccc23)cn1    0.45%
COc1ncnc(C2CC2)c1-c1ncc2cnn(Cc3ccc(-c4nc(C(F)(F)F)cn4C(C)C)cc3)c2n1 + Cc1[nH]c2ccc(F)cc2c1-c1nc2c3cccnc3c3ncccc3c2[nH]1    102%
O=C(c1cc(Cc2n[nH]c(=O)c3ccccc23)ccc1F)N1CCN(C(=O)C2CC2)CC1 + Cc1[nH]c2ccc(F)cc2c1-c1nc2c3cccnc3c3ncccc3c2[nH]1    94.1%
COc1cccc2c1C(=O)c1c(O)c3c(c(O)c1C2=O)CC(O)(C(=O)CO)CC3OC1CC(N)C(O)C(C)O1 (centres undefined) + Cc1cnc(CNC(=O)c2c(=O)c3ccc(N4CCCN(C)CC4)nc3n3c2sc2ccccc23)cn1    15.2%

Below: the item to evaluate.
Query: Give the reported value of viability, T/C for this record: O=c1[nH]cc(F)c(=O)[nH]1 + CN(C)c1ccc(Nc2c3ccc(NC(=O)CCN4CCCC4)cc3nc3cc(NC(=O)CCN4CCCC4)ccc23)cc1
Reply: 78.9%

---

test system: 454973-116-R2-J3-PDC spheroids, viability, % test/control; assay: Anticancer human tumor 454973-116-R2-J3-PDC cell line growth inhibition [GQUAD]; details: second compound 0.1 µM; first compound 0.1 µM; stronger effect = lower value; spheroids with HUVEC and MSC;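 further: spheroids exposed to compounds for seven days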;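 on viability, T/C: 100% = DMSO vehicle control viability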
Label rule met when viability, T/C is strictly below 90%; otherwise label rule not met.

Illustrative cases are given below, each with its answer.
C#Cc1c(F)ccc2cc(O)cc(-c3ncc4c(N5CC6CCC(C5)N6)nc(OCC56CCCN5CC(F)C6)nc4c3F)c12 (stereo not given) + Cc1cnc(CNC(=O)c2c(=O)c3ccc(N4CCCN(C)CC4)nc3n3c2sc2ccccc23)cn1    rule met
C=CCn1c(=O)c2cnc(Nc3ccc(N4CCN(C)CC4)cc3)nc2n1-c1cccc(C(C)(C)O)n1 + Cc1[nH]c2ccc(F)cc2c1-c1nc2c3cccnc3c3ncccc3c2[nH]1    rule not met
O=c1[nH]cc(F)c(=O)[nH]1 + Cc1[nH]c2ccc(F)cc2c1-c1nc2c3cccnc3c3ncccc3c2[nH]1    rule not met

Please examine the following record next.
Query: Identify whether the compound CC(C)n1c(=O)n(C)c2cnc3cc(F)c(-c4ccc(OCCCN5CCCCC5)nc4)cc3c21 + Cc1[nH]c2ccc(F)cc2c1-c1nc2c3cccnc3c3ncccc3c2[nH]1 records viability, T/C below 90%.
Reply: rule not met

---

As shown below, each of these compounds has a reported viability, T/C value.
system: 454973-116-R2-J3-PDC spheroids, viability, % test/control; assay: Anticancer human tumor 454973-116-R2-J3-PDC cell line growth inhibition [GQUAD]; conditions: second compound 0.316 µM; first compound 0.316 µM; stronger effect = lower value; spheroids with HUVEC and MSC;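 further: spheroids exposed to compounds for seven days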;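 on viability, T/C: 100% = DMSO vehicle control viability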
State the answer as a number, implicitly in %.

The cases that follow already have their viability, T/C on record.
Nc1ccn(C2OC(CO)C(O)C2(F)F)c(=O)n1 (stereo not drawn) + CN(C)c1ccc(Nc2c3ccc(NC(=O)CCN4CCCC4)cc3nc3cc(NC(=O)CCN4CCCC4)ccc23)cc1    15.3
CC(C)(O)C1CCC(Nc2ccc3ncc(-c4cccc(C(F)(F)F)c4)n3n2)CC1 (stereo not drawn) + Cc1[nH]c2ccc(F)cc2c1-c1nc2c3cccnc3c3ncccc3c2[nH]1    105
CC(C)n1c(=O)n(C)c2cnc3cc(F)c(-c4ccc(OCCCN5CCCCC5)nc4)cc3c21 + Cc1cnc(CNC(=O)c2c(=O)c3ccc(N4CCCN(C)CC4)nc3n3c2sc2ccccc23)cn1    38.7
CCCS(=O)(=O)Nc1ccc(F)c(C(=O)c2c[nH]c3ncc(-c4ccc(Cl)cc4)cc23)c1F + Cc1[nH]c2ccc(F)cc2c1-c1nc2c3cccnc3c3ncccc3c2[nH]1    102
Cc1[nH]c2ccccc2c1CCNCc1ccc(/C=C/C(=O)NO)cc1 + CN(C)c1ccc(Nc2c3ccc(NC(=O)CCN4CCCC4)cc3nc3cc(NC(=O)CCN4CCCC4)ccc23)cc1    6.88
CC1COCCN1c1cc(C2(S(C)(=N)=O)CC2)nc(-c2ccnc3[nH]ccc23)n1 (stereo not drawn) + Cc1[nH]c2ccc(F)cc2c1-c1nc2c3cccnc3c3ncccc3c2[nH]1    110
C=CC(=O)N1CCN(c2nc(=O)n(-c3c(C)ccnc3C(C)C)c3nc(-c4c(O)cccc4F)c(F)cc23)C(C)C1 (stereo not drawn) + Cc1[nH]c2ccc(F)cc2c1-c1nc2c3cccnc3c3ncccc3c2[nH]1    107

Below: the item to evaluate.
Query: Give the reported value of viability, T/C for this record: COc1cccc2c1C(=O)c1c(O)c3c(c(O)c1C2=O)CC(O)(C(=O)CO)CC3OC1CC(N)C(O)C(C)O1 (stereo not drawn) + Cc1cnc(CNC(=O)c2c(=O)c3ccc(N4CCCN(C)CC4)nc3n3c2sc2ccccc23)cn1
Reply: 49.3
